# target: T1, HLA-B*08:01 (human)
# T1 construct: MHC monomer first loaded with a UV-sensitive peptide that is cleaved by UV light and exchanged for the test peptide
# methodNotes: UV peptide exchange ELISA
# Description: Candidate peptides for T cell based therapies according to the present invention were further tested for their MHC binding capacity (affinity). The individual peptide-MHC complexes were produced by UV-ligand exchange, where a UV-sensitive peptide is cleaved upon UV-irradiation and exchanged with the peptide of interest as analyzed. Only peptide candidates that can effectively bind and stabilize the peptide-receptive MHC molecules prevent dissociation of the MHC complexes. […]
Listed here are binders together with their documented peptide exchange yield.
measuredQuantity: peptide exchange yield

# binder, measuredQuantity, valueReported
measured = [
    ("SPNSLVTIL [SPNSLVTIL (SEQ ID NO: 235)]", "peptide exchange yield", "50 to 75%"),
    ("HSWTRTSV [HSWTRTSV (SEQ ID NO: 124)]", "peptide exchange yield", "50 to 75%"),
    ("LFKQTKINL [LFKQTKINL (SEQ ID NO: 162)]", "peptide exchange yield", "20 to 50%"),
    ("DVYTQVSAF [DVYTQVSAF (SEQ ID NO: 203)]", "peptide exchange yield", "20 to 50%"),
    ("RPLKPGEVL [RPLKPGEVL (SEQ ID NO: 191)]", "peptide exchange yield", "20 to 50%"),
    ("QQIDRVVEV [QQIDRVVEV (SEQ ID NO: 249)]", "peptide exchange yield", "20 to 50%"),
    ("ELFLHPVL [ELFLHPVL (SEQ ID NO: 29)]", "peptide exchange yield", "20 to 50%"),
    ("LPLTEHEL [LPLTEHEL (SEQ ID NO: 179)]", "peptide exchange yield", "50 to 75%"),
    ("KVIDRKVEL [KVIDRKVEL (SEQ ID NO: 240)]", "peptide exchange yield", "20 to 50%"),
    ("RLKLRYEGL [RLKLRYEGL (SEQ ID NO: 74)]", "peptide exchange yield", "50 to 75%"),
    ("VLLSRRTAL [VLLSRRTAL (SEQ ID NO: 55)]", "peptide exchange yield", "20 to 50%"),
    ("MPKRAHWGA [MPKRAHWGA (SEQ ID NO: 225)]", "peptide exchange yield", "50 to 75%"),
    ("TLRAYVLAL [TLRAYVLAL (SEQ ID NO: 228)]", "peptide exchange yield", "50 to 75%"),
    ("DLRKLKRQL [DLRKLKRQL (SEQ ID NO: 53)]", "peptide exchange yield", "20 to 50%"),
    ("EPFTRPVL [EPFTRPVL (SEQ ID NO: 13)]", "peptide exchange yield", "20 to 50%"),
    ("HALPPYITVL [HALPPYITVL (SEQ ID NO: 244)]", "peptide exchange yield", "20 to 50%"),
]

Origin of the recorded values: patent US20250145684A1
